All figures here come from patent US20070117743A1.

Test system: LNCaP
assay: SRB colorimetric assay of cell growth and viability, LNCaP
Assay type: cell-based, human
details: 48 hours exposure; read-out: LC50 LN-caP
Where a SMILES comes first, the peptide text is derived from it. Bridges are numbered along the chain shown (N, C = ends). [ ]: non-standard residue; d: D form. The star is where a group is joined. d(aIle) = CC[C@H](C)[C@@H](N)C(=O)O; d(aThr) = C[C@@H](O)[C@@H](N)C(=O)O; Hexanoyl(5-Me) = CC(C)CCCC(=O)*; Orn = NCCC[C@H](N)C(=O)O; Dhb = C/C=C(\N)C(=O)O

compound: C/C=C1\NC(=O)[C@H](Cc2ccccc2)NC(=O)[C@@H](C(C)C)NC(=O)[C@@H]([C@@H](C)CC)NC(=O)[C@H](NC(=O)[C@H](NC(=O)[C@H](CCCN)NC(=O)[C@H]2CCCN2C(=O)[C@H](NC(=O)[C@@H](NC(=O)[C@H](NC(=O)[C@H](NC(=O)CCCC(C)C)C(C)C)[C@H](C)O)C(C)C)C(C)C)[C@@H](C)CC)[C@@H](C)OC(=O)[C@H](C(C)C)NC1=O [Compound 7, [D-Thr^12]-KF]
CC50: ≥ 6.77 µM
--
compound: C/C=C1\NC(=O)[C@H](Cc2ccccc2)NC(=O)[C@@H](C(C)C)NC(=O)[C@@H]([C@@H](C)CC)NC(=O)[C@H](NC(=O)[C@H](NC(=O)[C@H](CCCN)NC(=O)[C@H]2CCCN2C(=O)[C@H](NC(=O)[C@H](Cc2ccccc2)NC(=O)[C@@H](NC(=O)[C@H](NC(=O)CCCC(C)C)C(C)C)[C@@H](C)O)C(C)C)[C@@H](C)CC)[C@@H](C)OC(=O)[C@H](C(C)C)NC1=O [Compound 43, [Phe^11]-KF] ({Hexanoyl(5-Me)}-[dV]TF[dV][dP][Orn][d(aIle)][d(aThr)][d(aIle)][dV]F[Dhb]V; ester 8-C)
CC50: 4.55 µM
--
compound: C/C=C1\NC(=O)[C@H](Cc2ccccc2)NC(=O)[C@@H](C(C)C)NC(=O)[C@@H]([C@@H](C)CC)NC(=O)[C@H](NC(=O)[C@H](NC(=O)[C@H](CCCN)NC(=O)[C@H]2CCCN2C(=O)[C@H](NC(=O)[C@@H](NC(=O)[C@@H](NC(=O)[C@H](NC(=O)CCCCCCCCCC)C(C)C)[C@@H](C)O)C(C)C)C(C)C)[C@@H](C)CC)[C@@H](C)OC(=O)[C@H](C(C)C)NC1=O [Compound 15, [Und^14]-KF]
CC50: 3.48 µM
--
compound: C/C=C1\NC(=O)[C@H](Cc2ccccc2)NC(=O)[C@@H](C(C)C)NC(=O)[C@@H]([C@@H](C)CC)NC(=O)[C@H](NC(=O)[C@H](NC(=O)[C@H](CCCN)NC(=O)[C@H]2CCCN2C(=O)[C@H](NC(=O)[C@@H](NC(=O)[C@@H](NC(=O)[C@H](NC(=O)CCCC(C)C)C(C)C)[C@@H](C)O)[C@@H](C)O)C(C)C)[C@@H](C)CC)[C@@H](C)OC(=O)[C@H](C(C)C)NC1=O [Compound 50, [Thr^11]-KF] ({Hexanoyl(5-Me)}-[dV]TT[dV][dP][Orn][d(aIle)][d(aThr)][d(aIle)][dV]F[Dhb]V; ester 8-C)
CC50: ≥ 6.76 µM
--
compound: C/C=C1\NC(=O)[C@H](Cc2ccccc2)NC(=O)[C@@H](C(C)C)NC(=O)[C@@H]([C@@H](C)CC)NC(=O)[C@H](NC(=O)[C@H](NC(=O)[C@H](CCCN)NC(=O)[C@H]2CCCN2C(=O)[C@H](NC(=O)[C@@H](NC(=O)[C@@H](NC(=O)[C@H](NC(=O)CCCC(C)C)C(C)C)[C@@H](C)O)C(C)C)C(C)C)[C@@H](C)CC)COC(=O)[C@H](C(C)C)NC1=O [Compound 3, [D-Ser^6]-KF] ({Hexanoyl(5-Me)}-[dV]TV[dV][dP][Orn][d(aIle)][dS][d(aIle)][dV]F[Dhb]V; ester 8-C)
CC50: 2.94 µM
--
compound: C/C=C1\NC(=O)[C@H](Cc2ccccc2)NC(=O)[C@@H](C(C)C)NC(=O)[C@@H]([C@@H](C)CC)NC(=O)[C@H](NC(=O)[C@H](NC(=O)[C@H](CCCN)NC(=O)[C@H]2CCCN2C(=O)[C@H](NC(=O)[C@@H](NC(=O)[C@H](CCC(N)=O)NC(=O)CCCC(C)C)C(C)C)C(C)C)[C@@H](C)CC)[C@@H](C)OC(=O)[C@H](C(C)C)NC1=O [Compound 58, [Gln^12, noD-Val^13]-KF] ({Hexanoyl(5-Me)}-QV[dV][dP][Orn][d(aIle)][d(aThr)][d(aIle)][dV]F[Dhb]V; ester 7-C)
CC50: ≥ 7.11 µM
--
compound: C/C=C1\NC(=O)[C@H](Cc2ccccc2)NC(=O)[C@@H](C(C)C)NC(=O)[C@@H]([C@@H](C)CC)NC(=O)[C@H](NC(=O)[C@H](NC(=O)[C@H](CCCN)NC(=O)[C@H]2CCCN2C(=O)[C@H](NC(=O)[C@@H](NC(=O)[C@@H](NC(=O)[C@H](NC(=O)CCCC(C)C)C(C)C)[C@@H](C)O)C(C)C)C(C)C)[C@@H](C)CC)[C@H](C)OC(=O)[C@H](C(C)C)NC1=O [Compound 2, [D-Thr^6]-KF]
CC50: ≥ 6.77 µM
--
compound: C/C=C1\NC(=O)[C@H](Cc2ccccc2)NC(=O)[C@@H](C(C)C)NC(=O)[C@@H]([C@@H](C)CC)NC(=O)[C@H](NC(=O)[C@H](NC(=O)[C@H](CCCN)NC(=O)[C@H]2CCCN2C(=O)[C@H](NC(=O)[C@@H](NC(=O)[C@@H](NC(=O)[C@H](NC(=O)Cc2cc(F)cc(F)c2)C(C)C)[C@@H](C)O)C(C)C)C(C)C)[C@@H](C)CC)[C@@H](C)OC(=O)[C@H](C(C)C)NC1=O [Compound 22, [3,5-dFPhAc^14]-KF]
CC50: 6.58 µM
